These data points were gathered from ChEMBL document CHEMBL3124792.

experiment notes: Clearance in rat at 5 mg/kg, iv and 10 mg/kg, po
Assay type: ADME, organism-based
condition parameters: in vivo
measurement kind: clearance (L/h/kg)
One number for each entry, in L/h/kg.

Prompt: So what's the measured clearance for this one? `COc1ccc2c(c1)[C@@H]1C[C@]1(C(=O)N1C3CC1CN(C)C3)Cn1c-2c(C2CCCCC2)c2ccc(C(=O)NS(=O)(=O)N(C)C)cc21`
Response: 0.54

====

experiment notes: Protein binding in human serum
Assay type: ADME, cell-free
condition parameters: read-out: PB (converted)
measurement kind: fraction unbound
Numbers only.

Prompt: Look at this molecule and give its reported fraction unbound. COc1ccc2c(c1)[C@@H]1C[C@]1(C(=O)N1[C@@H]3CC[C@H]1CN(C)C3)Cn1c-2c(C2CCCCC2)c2ccc(C(=O)NS(=O)(=O)N(C)C)cc21 [BECLABUVIR]
Response: 0.02

====

Kindly state EC50 for each of the entries shown.
System: Hepatitis C virus
experiment notes: Antiviral activity against Hepatitis C virus H77c genotype 1a infected in human HuH7 cells after 3 days by FRET assay
Assay type: functional, organism-based, Hepacivirus hominis
condition parameters: genotype 1a H77, Huh-7, 72 h
Give bare numbers, in µM.

Reference set (8 entries):
compound | measurement unit | endpoint value
COc1ccc2c(c1)C1CC1(C(=O)N1CC3CCC(C1)N3C)Cn1c-2c(C2CCCCC2)c2ccc(C(=O)NS(=O)(=O)N(C)C)cc21 (racemic) | µM | 0.016
COc1ccc2c(c1)C1CC1(C(=O)N1CC(O)(C(F)(F)F)C1)Cn1c-2c(C2CCCCC2)c2ccc(C(=O)NS(=O)(=O)N(C)C)cc21 (racemic) | µM | 0.015
COc1ccc2c(c1)C1CC1(C(=O)N1C3CCC1CN(C)C3)Cn1c-2c(C2CCCCC2)c2ccc(C(=O)NS(=O)(=O)N(C)C)cc21 (racemic) | µM | 0.005
COc1ccc2c(c1)C1CC1(C(=O)N1CCOCC1)Cn1c-2c(C2CCCCC2)c2ccc(C(=O)NS(=O)(=O)N(C)C)cc21 (racemic) | µM | 0.054
O=C(O)c1ccc2c(C3CCCCC3)c3n(c2c1)C[C@]1(C(=O)N2CCOCC2)C[C@@H]1c1ccccc1-3 | µM | 0.472
COc1ccc2c(c1)C1CC1(C(=O)N1CCN(C(C)=O)CC1)Cn1c-2c(C2CCCCC2)c2ccc(C(=O)NS(=O)(=O)N(C)C)cc21 (racemic) | µM | 0.045
COc1ccc2c(c1)C1CC1(C(=O)N1C[C@@H](C)N[C@@H](C)C1)Cn1c-2c(C2CCCCC2)c2ccc(C(=O)NS(=O)(=O)N(C)C)cc21 (mixture of isomers) | µM | 0.021
COc1ccc2c(c1)C1CC1(C(=O)N1CC(O)(c3ccccc3)C1)Cn1c-2c(C2CCCCC2)c2ccc(C(=O)NS(=O)(=O)N(C)C)cc21 (racemic) | µM | 0.068

Could you report EC50 for every entry in the following list?
1. COc1ccc2c(c1)C1CC1(C(=O)N1C[C@@H](C)O[C@@H](C)C1)Cn1c-2c(C2CCCCC2)c2ccc(C(=O)NS(=O)(=O)N(C)C)cc21 (mixture of isomers)
2. COc1ccc2c(c1)C1CC1(C(=O)N1C3CC1CN(C)C3)Cn1c-2c(C2CCCCC2)c2ccc(C(=O)NS(=O)(=O)N(C)C)cc21 (racemic)

Response:
[0.012, 0.004]

Prompt: What EC50 value was documented for this compound, CCN1CC2CCC(C1)N2C(=O)C12CC1c1cc(OC)ccc1-c1c(C3CCCCC3)c3ccc(C(=O)NS(=O)(=O)N(C)C)cc3n1C2 (racemic) ?
Response: 0.004

====

experiment notes: Cytotoxicity against human HuH7 cells by Alamar blue assay
Assay type: cell-based
condition parameters: Huh-7 cells
Exercise: for every item that follows, state its recorded CC50.

Look at each compound and report its CC50.
1. COc1ccc2c(c1)C1CC1(C(=O)N1CC(O)(c3ccc(F)cc3)C1)Cn1c-2c(C2CCCCC2)c2ccc(C(=O)NS(=O)(=O)N(C)C)cc21 (racemic)
2. COC[C@H]1CN(C(=O)[C@]23C[C@H]2c2cc(OC)ccc2-c2c(C4CCCCC4)c4ccc(C(=O)NS(=O)(=O)N(C)C)cc4n2C3)CCO1
3. COc1ccc2c(c1)C1CC1(C(=O)N1CCN(C(=O)N(C)C)CC1)Cn1c-2c(C2CCCCC2)c2ccc(C(=O)NS(=O)(=O)N(C)C)cc21 (racemic)
4. CN(C)S(=O)(=O)NC(=O)c1ccc2c(C3CCCCC3)c3n(c2c1)CC1(C(=O)N2CCOCC2)CC1c1ccccc1-3 (racemic)

Response:
1: 7 µM; 2: > 10 µM; 3: > 10 µM; 4: > 10 µM

// batch mode: one CC50 value per listed entry
1. COc1ccc2c(c1)C1CC1(C(=O)N1CC(C)(O)C1)Cn1c-2c(C2CCCCC2)c2ccc(C(=O)NS(=O)(=O)N(C)C)cc21 (racemic)
2. COc1ccc2c(c1)C1CC1(C(=O)N1C[C@@H](C)N(C)[C@@H](C)C1)Cn1c-2c(C2CCCCC2)c2ccc(C(=O)NS(=O)(=O)N(C)C)cc21 (mixture of isomers)
3. CCN1CC2CCC(C1)N2C(=O)C12CC1c1cc(OC)ccc1-c1c(C3CCCCC3)c3ccc(C(=O)NS(=O)(=O)N(C)C)cc3n1C2 (racemic)
4. CN(C)S(=O)(=O)NC(=O)c1ccc2c(C3CCCCC3)c3n(c2c1)C[C@]1(C(=O)N2CCOCC2)C[C@@H]1c1ccccc1-3
5. COc1ccc2c(c1)C1CC1(C(=O)N1C3CC1CN(Cc1ccccc1)C3)Cn1c-2c(C2CCCCC2)c2ccc(C(=O)NS(=O)(=O)N(C)C)cc21 (racemic)
6. COc1ccc2c(c1)C1CC1(C(=O)N1CC3CCC(C1)O3)Cn1c-2c(C2CCCCC2)c2ccc(C(=O)NS(=O)(=O)N(C)C)cc21 (racemic)

Response:
["> 10 µM", "8 µM", "> 10 µM", "> 10 µM", "> 10 µM", "> 10 µM"]

Batch request: CC50 per item, same order as input.
1. COc1ccc2c(c1)C1CC1(C(=O)N1C3CC1CN(C)C3)Cn1c-2c(C2CCCCC2)c2ccc(C(=O)NS(=O)(=O)N(C)C)cc21 (racemic)
2. COc1ccc2c(c1)C1CC1(C(=O)N1C[C@@H](C)N[C@@H](C)C1)Cn1c-2c(C2CCCCC2)c2ccc(C(=O)NS(=O)(=O)N(C)C)cc21 (mixture of isomers)
3. O=C(O)c1ccc2c(C3CCCCC3)c3n(c2c1)CC(C(=O)N1CCOCC1)=Cc1ccccc1-3

Response:
1: 10 µM; 2: 15 µM; 3: > 10 µM

====

experiment notes: Inhibition of HCV Con1 genotype 1b recombinant wild-type NS5B polymerase-mediated incorporation of radiolabeled nucleotides by scintillation proximity assay
Set-up: species or system Hepatitis C virus (isolate Con1)
IC50 strictly under 90 nM means Criterion met; at 90 nM or over means Criterion not met.

Check out these entries, answers already filled in.
molecule | label class
COc1ccc2c(c1)[C@@H]1C[C@]1(C(=O)N1[C@@H]3CC[C@H]1CN(C)C3)Cn1c-2c(C2CCCCC2)c2ccc(C(=O)NS(=O)(=O)N(C)C)cc21 | Criterion met
CN(C)S(=O)(=O)NC(=O)c1ccc2c(C3CCCCC3)c3n(c2c1)CC(C(=O)N1CCOCC1)=Cc1ccccc1-3 | Criterion met
CN(C)S(=O)(=O)NC(=O)c1ccc2c(C3CCCCC3)c3n(c2c1)C[C@@]1(C(=O)N2CCOCC2)C[C@H]1c1ccccc1-3 | Criterion met
O=C(O)c1ccc2c(C3CCCCC3)c3n(c2c1)C[C@@]1(C(=O)N2CCOCC2)C[C@H]1c1ccccc1-3 | Criterion met
O=C(O)c1ccc2c(C3CCCCC3)c3n(c2c1)C[C@]1(C(=O)N2CCOCC2)C[C@@H]1c1ccccc1-3 | Criterion not met
COc1ccc2c(c1)C=C(C(=O)N1CCOCC1)Cn1c-2c(C2CCCCC2)c2ccc(C(=O)NS(=O)(=O)N(C)C)cc21 | Criterion met
O=C(O)c1ccc2c(C3CCCCC3)c3n(c2c1)CC(C(=O)N1CCOCC1)=Cc1ccccc1-3 | Criterion not met
CN(C)S(=O)(=O)NC(=O)c1ccc2c(C3CCCCC3)c3n(c2c1)C[C@]1(C(=O)N2CCOCC2)C[C@@H]1c1ccccc1-3 | Criterion not met

Prompt: Check if IC50 falls below 90 nM for COc1ccc2c(c1)C1CC1(C(=O)N1CCOCC1)Cn1c-2c(C2CCCCC2)c2ccc(C(=O)NS(=O)(=O)N(C)C)cc21 (racemic) .
Response: Criterion met

Prompt: Now give it for CN(C)S(=O)(=O)NC(=O)c1ccc2c(C3CCCCC3)c3n(c2c1)CC1(C(=O)N2CCOCC2)CC1c1ccccc1-3 (racemic) too.
Response: Criterion not met

====

experiment notes: Plasma concentration in rat at 10 mg/kg, po after 6 hrs
Format: ADME, organism-based
Set-up: dose 10 mg/kg, route oral
measurement kind: concentration at 6 h

Prompt: What does the record list as concentration at 6 h for `COc1ccc2c(c1)[C@@H]1C[C@]1(C(=O)N1C3CC1CN(C)C3)Cn1c-2c(C2CCCCC2)c2ccc(C(=O)NS(=O)(=O)N(C)C)cc21` ?
Response: 440 nM
